Cited source: patent US12257247B2

target: VAV1 (Homo sapiens, UniProt P15498+Q96SW2); construct: A heterozygous VAV1 C-terminal HiBiT knock-in pool was generated at Monte Rosa Therapeutics from a clonal Jurkat cell; endogenous in cells; host or cells: Jurkat clone stably expressing LgBiT, homozygous GSPT1-G575N; heterozygous VAV1-HiBiT knock-in pool; assay: VAV1 degradation activity, VAV1-HiBiT knock-in Jurkat luminescence assay (Example A, Table 1); assay type: cell-based; settings: VAV1-HiBiT knock-in Jurkat cells, luminescence read at 6 and 24 hours; read-out: VAV1 DC50
Sequence (P15498 whole entry): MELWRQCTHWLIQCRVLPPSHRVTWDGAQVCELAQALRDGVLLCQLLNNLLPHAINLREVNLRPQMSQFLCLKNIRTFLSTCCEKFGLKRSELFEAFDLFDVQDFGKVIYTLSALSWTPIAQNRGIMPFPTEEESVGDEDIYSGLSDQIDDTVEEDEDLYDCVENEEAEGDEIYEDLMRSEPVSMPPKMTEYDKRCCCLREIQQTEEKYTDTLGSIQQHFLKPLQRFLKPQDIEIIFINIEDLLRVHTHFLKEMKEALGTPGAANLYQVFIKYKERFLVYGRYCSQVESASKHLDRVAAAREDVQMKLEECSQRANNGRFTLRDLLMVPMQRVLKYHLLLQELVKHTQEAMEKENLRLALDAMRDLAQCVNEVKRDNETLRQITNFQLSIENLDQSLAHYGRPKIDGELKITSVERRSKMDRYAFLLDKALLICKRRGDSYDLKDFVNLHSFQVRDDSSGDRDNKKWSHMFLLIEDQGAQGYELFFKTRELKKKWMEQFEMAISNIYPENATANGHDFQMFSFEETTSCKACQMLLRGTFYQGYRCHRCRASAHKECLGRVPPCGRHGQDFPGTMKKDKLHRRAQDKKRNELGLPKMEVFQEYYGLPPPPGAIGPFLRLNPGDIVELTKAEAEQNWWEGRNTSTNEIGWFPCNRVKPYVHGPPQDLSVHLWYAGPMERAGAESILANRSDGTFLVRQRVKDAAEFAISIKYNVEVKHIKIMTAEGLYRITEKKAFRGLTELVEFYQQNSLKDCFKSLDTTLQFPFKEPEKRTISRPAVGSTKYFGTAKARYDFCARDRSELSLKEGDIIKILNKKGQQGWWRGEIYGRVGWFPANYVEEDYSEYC
Sequence (Q96SW2 whole entry): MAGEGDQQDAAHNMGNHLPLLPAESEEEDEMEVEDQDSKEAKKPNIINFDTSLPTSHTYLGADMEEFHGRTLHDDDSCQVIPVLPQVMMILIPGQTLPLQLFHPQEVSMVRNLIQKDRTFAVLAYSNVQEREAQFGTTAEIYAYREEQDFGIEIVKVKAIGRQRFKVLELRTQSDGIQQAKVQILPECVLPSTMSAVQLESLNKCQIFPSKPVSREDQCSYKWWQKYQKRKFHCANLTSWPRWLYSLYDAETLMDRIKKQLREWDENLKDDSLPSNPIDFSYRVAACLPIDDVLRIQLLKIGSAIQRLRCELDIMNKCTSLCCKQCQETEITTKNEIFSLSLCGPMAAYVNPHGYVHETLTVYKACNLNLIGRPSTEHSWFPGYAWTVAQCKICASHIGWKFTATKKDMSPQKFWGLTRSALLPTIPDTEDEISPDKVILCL
Sequence (Q16531 whole entry partner): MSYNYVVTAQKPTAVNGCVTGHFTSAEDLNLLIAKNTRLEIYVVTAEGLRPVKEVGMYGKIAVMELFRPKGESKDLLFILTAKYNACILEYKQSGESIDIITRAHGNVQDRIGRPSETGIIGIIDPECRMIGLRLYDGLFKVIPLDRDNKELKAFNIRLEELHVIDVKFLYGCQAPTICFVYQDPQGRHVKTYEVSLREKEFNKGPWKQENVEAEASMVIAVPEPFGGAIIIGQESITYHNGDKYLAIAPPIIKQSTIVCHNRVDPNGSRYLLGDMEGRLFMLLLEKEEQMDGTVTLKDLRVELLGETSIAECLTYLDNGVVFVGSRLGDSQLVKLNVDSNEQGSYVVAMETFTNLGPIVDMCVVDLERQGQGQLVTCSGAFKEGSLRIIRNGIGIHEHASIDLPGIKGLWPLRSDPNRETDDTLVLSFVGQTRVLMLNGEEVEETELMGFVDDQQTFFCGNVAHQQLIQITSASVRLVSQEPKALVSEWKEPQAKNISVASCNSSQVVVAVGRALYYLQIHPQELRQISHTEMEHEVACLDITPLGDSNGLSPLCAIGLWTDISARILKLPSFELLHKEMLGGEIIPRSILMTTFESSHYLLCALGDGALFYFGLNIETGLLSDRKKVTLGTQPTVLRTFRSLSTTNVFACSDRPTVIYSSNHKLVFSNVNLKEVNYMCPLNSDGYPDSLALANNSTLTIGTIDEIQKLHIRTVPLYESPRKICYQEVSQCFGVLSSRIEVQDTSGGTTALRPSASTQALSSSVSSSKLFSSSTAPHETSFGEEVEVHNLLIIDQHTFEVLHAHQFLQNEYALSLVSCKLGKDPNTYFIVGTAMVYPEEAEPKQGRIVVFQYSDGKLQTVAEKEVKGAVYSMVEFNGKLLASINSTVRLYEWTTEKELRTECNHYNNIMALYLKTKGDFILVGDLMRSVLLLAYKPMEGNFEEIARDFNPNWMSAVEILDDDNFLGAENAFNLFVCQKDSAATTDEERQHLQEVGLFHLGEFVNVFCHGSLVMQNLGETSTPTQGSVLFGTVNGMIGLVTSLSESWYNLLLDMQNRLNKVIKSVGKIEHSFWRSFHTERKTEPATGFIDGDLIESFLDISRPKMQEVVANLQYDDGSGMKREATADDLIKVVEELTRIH
For each of the compounds below, state its log10 DC50.
Scale: log10; quantity: DC50; unit before log: nM

>  <COMPOUND>
Cc1c(-c2ccc(Cn3ccccc3=O)cc2)cccc1C1CCC(=O)NC1=O (centres unmarked)

>  <log10 DC50>
3.63

$$$$
>  <COMPOUND>
Cc1cccn(Cc2ccc(-c3cccc(C4CCC(=O)NC4=O)c3Cl)cc2)c1=O (centres unmarked)

>  <log10 DC50>
0.99

$$$$
>  <COMPOUND>
Cn1cnc(COc2ccc(-c3cccc(C4CCC(=O)NC4=O)c3Cl)cc2)c1 (centres unmarked)

>  <log10 DC50>
0.74

$$$$
>  <COMPOUND>
CC1(Cc2ccc(-c3cccc(C4CCC(=O)NC4=O)c3Cl)cc2)COC1 (centres unmarked)

>  <log10 DC50>
1.34

$$$$
>  <COMPOUND>
N#Cc1ccc(-c2cccc(C3CCC(=O)NC3=O)c2Cl)cc1N (centres unmarked)

>  <log10 DC50>
2.63

$$$$
>  <COMPOUND>
CC(C)(c1ccc(-c2cccc(C3CCC(=O)NC3=O)c2Cl)cc1)N1CCCCC1=O (centres unmarked)

>  <log10 DC50>
1.52

$$$$
>  <COMPOUND>
CN1CC2(CC2)N(c2ccc(-c3cccc(C4CCC(=O)NC4=O)c3Cl)cc2)C1=O (centres unmarked)

>  <log10 DC50>
0.66

$$$$

Problem: Supply reported log10 DC50 belonging to this compound: CC(c1ccc(-c2cccc(C3CCC(=O)NC3=O)c2Cl)cc1)n1ccccc1=O (centres unmarked)
Solution: 1.44
